Assay: Biodistribution of radiometal-DOTA-BBN conjugates in CF1 normal mice
Details: 1 hour post-injection
MEASUREMENT_NAME: Avg % ID, Stomach (% ID)
Numbers only here, please. The scale is % ID.

State the recorded Avg % ID, Stomach for this entry: CSCC[C@H](NC(=O)[C@H](CC(C)C)NC(=O)[C@H](Cc1cnc[nH]1)NC(=O)CNC(=O)[C@@H](NC(=O)[C@H](C)NC(=O)[C@H](Cc1c[nH]c2ccccc12)NC(=O)[C@H](CCC(N)=O)NC(=O)CCCCCCCNC(=O)CN1CCN(CC(=O)O)CCN(CC(=O)O)CCN(CC(=O)O)CC1)C(C)C)C(N)=O [177Lu-DOTA-8-Aoc-BBN[7-14]NH2] [metal not drawn]
0.51

Try the compound CSCC[C@H](NC(=O)[C@H](CC(C)C)NC(=O)[C@H](Cc1c[nH]cn1)NC(=O)CNC(=O)[C@@H](NC(=O)[C@H](C)NC(=O)[C@H](Cc1c[nH]c2ccccc12)NC(=O)[C@H](CCC(N)=O)NC(=O)CCCCNC(=O)CN1CCN(CC(=O)O)CCN(CC(=O)O)CCN(CC(=O)O)CC1)C(C)C)C(N)=O [149Pm-DOTA-5-Ava-BBN[7-14]NH2]
0.77

Do the same for CSCC[C@H](NC(=O)[C@H](CC(C)C)NC(=O)[C@H](Cc1cnc[nH]1)NC(=O)CNC(=O)[C@@H](NC(=O)[C@H](C)NC(=O)[C@H](Cc1c[nH]c2ccccc12)NC(=O)[C@H](CCC(N)=O)NC(=O)CN1CCN(CC(=O)O)CCN(CC(=O)O)CCN(CC(=O)O)CC1)C(C)C)C(N)=O [177Lu-DOTA-0-BBN[7-14]NH2] [metal not drawn] please
0.05

====

Assay: Biodistribution of radiometal-DOTA-BBN conjugates in CF1 normal mice
Settings: 1 hour post-injection
MEASUREMENT_NAME: Avg % ID, L. Intestine (% ID)
Give the value, in units of % ID, as a plain number.

Give its Avg % ID, L. Intestine value. Item: CSCC[C@H](NC(=O)[C@H](CC(C)C)NC(=O)[C@H](Cc1c[nH]cn1)NC(=O)CNC(=O)[C@@H](NC(=O)[C@H](C)NC(=O)[C@H](Cc1c[nH]c2ccccc12)NC(=O)[C@H](CCC(N)=O)NC(=O)CCCCNC(=O)CN1CCN(CC(=O)O)CCN(CC(=O)O)CCN(CC(=O)O)CC1)C(C)C)C(N)=O [177Lu-DOTA-5-Ava-BBN[7-14]NH2] [metal not drawn]
3.52

Can you check CSCC[C@H](NC(=O)[C@H](CC(C)C)NC(=O)[C@H](Cc1cnc[nH]1)NC(=O)CNC(=O)[C@@H](NC(=O)[C@H](C)NC(=O)[C@H](Cc1c[nH]c2ccccc12)NC(=O)[C@H](CCC(N)=O)NC(=O)CCNC(=O)CN1CCN(CC(=O)O)CCN(CC(=O)O)CCN(CC(=O)O)CC1)C(C)C)C(N)=O [149Pm-DOTA-β-Ala-BBN[7-14]NH2] next?
0.31

Also check CSCC[C@H](NC(=O)[C@H](CC(C)C)NC(=O)[C@H](Cc1cnc[nH]1)NC(=O)CNC(=O)[C@@H](NC(=O)[C@H](C)NC(=O)[C@H](Cc1c[nH]c2ccccc12)NC(=O)[C@H](CCC(N)=O)NC(=O)CN1CCN(CC(=O)O)CCN(CC(=O)O)CCN(CC(=O)O)CC1)C(C)C)C(N)=O [177Lu-DOTA-0-BBN[7-14]NH2] [metal not drawn]
0.09

CSCC[C@H](NC(=O)[C@H](CC(C)C)NC(=O)[C@H](Cc1c[nH]cn1)NC(=O)CNC(=O)[C@@H](NC(=O)[C@H](C)NC(=O)[C@H](Cc1c[nH]c2ccccc12)NC(=O)[C@H](CCC(N)=O)NC(=O)CCCCCCCCCCNC(=O)CN1CCN(CC(=O)O)CCN(CC(=O)O)CCN(CC(=O)O)CC1)C(C)C)C(N)=O [177Lu-DOTA-11-Aun-BBN[7-14]NH2] [metal not drawn] ?
5.03

Next record, please: CSCC[C@H](NC(=O)[C@H](CC(C)C)NC(=O)[C@H](Cc1cnc[nH]1)NC(=O)CNC(=O)[C@@H](NC(=O)[C@H](C)NC(=O)[C@H](Cc1c[nH]c2ccccc12)NC(=O)[C@H](CCC(N)=O)NC(=O)CCCCCCCNC(=O)CN1CCN(CC(=O)O)CCN(CC(=O)O)CCN(CC(=O)O)CC1)C(C)C)C(N)=O [149Pm-DOTA-8-Aoc-BBN[7-14]NH2]
4.43

Proceed to CSCC[C@H](NC(=O)[C@H](CC(C)C)NC(=O)[C@H](Cc1c[nH]cn1)NC(=O)CNC(=O)[C@@H](NC(=O)[C@H](C)NC(=O)[C@H](Cc1c[nH]c2ccccc12)NC(=O)[C@H](CCC(N)=O)NC(=O)CCCCNC(=O)CN1CCN(CC(=O)O)CCN(CC(=O)O)CCN(CC(=O)O)CC1)C(C)C)C(N)=O [149Pm-DOTA-5-Ava-BBN[7-14]NH2]
3.18

Entry to check: CSCC[C@H](NC(=O)[C@H](CC(C)C)NC(=O)[C@H](Cc1cnc[nH]1)NC(=O)CNC(=O)[C@@H](NC(=O)[C@H](C)NC(=O)[C@H](Cc1c[nH]c2ccccc12)NC(=O)[C@H](CCC(N)=O)NC(=O)CCNC(=O)CN1CCN(CC(=O)O)CCN(CC(=O)O)CCN(CC(=O)O)CC1)C(C)C)C(N)=O [111In-DOTA-β-Ala-BBN[7-14]NH2] [metal not drawn]
0.90

====

Kindly state Avg % ID, Heart for each of the entries shown.
Assay: Biodistribution of radiometal-DOTA-BBN conjugates in CF1 normal mice
Conditions: 1 hour post-injection
Don't forget the unit after the number, please.

Data request, read-out Avg % ID, Heart, for CSCC[C@H](NC(=O)[C@H](CC(C)C)NC(=O)[C@H](Cc1cnc[nH]1)NC(=O)CNC(=O)[C@@H](NC(=O)[C@H](C)NC(=O)[C@H](Cc1c[nH]c2ccccc12)NC(=O)[C@H](CCC(N)=O)NC(=O)CCNC(=O)CN1CCN(CC(=O)O)CCN(CC(=O)O)CCN(CC(=O)O)CC1)C(C)C)C(N)=O [149Pm-DOTA-β-Ala-BBN[7-14]NH2]
0.02 ± 0.02 % ID

Entry to check: CSCC[C@H](NC(=O)[C@H](CC(C)C)NC(=O)[C@H](Cc1cnc[nH]1)NC(=O)CNC(=O)[C@@H](NC(=O)[C@H](C)NC(=O)[C@H](Cc1c[nH]c2ccccc12)NC(=O)[C@H](CCC(N)=O)NC(=O)CCNC(=O)CN1CCN(CC(=O)O)CCN(CC(=O)O)CCN(CC(=O)O)CC1)C(C)C)C(N)=O [177Lu-DOTA-β-Ala-BBN[7-14]NH2] [metal not drawn]
0.05 ± 0.08 % ID

====

Kindly supply the reported Avg % ID, Heart values for the records listed here.
Assay: Biodistribution of radiometal-DOTA-BBN conjugates in CF1 normal mice
Conditions: 1 hour post-injection
Just the number please, in % ID, no unit attached.

Given the entry CSCC[C@H](NC(=O)[C@H](CC(C)C)NC(=O)[C@H](Cc1c[nH]cn1)NC(=O)CNC(=O)[C@@H](NC(=O)[C@H](C)NC(=O)[C@H](Cc1c[nH]c2ccccc12)NC(=O)[C@H](CCC(N)=O)NC(=O)CCCCNC(=O)CN1CCN(CC(=O)O)CCN(CC(=O)O)CCN(CC(=O)O)CC1)C(C)C)C(N)=O [111In-DOTA-5-Ava-BBN[7-14]NH2] [metal not drawn] , report its measured Avg % ID, Heart.
0.02

Try the compound CSCC[C@H](NC(=O)[C@H](CC(C)C)NC(=O)[C@H](Cc1c[nH]cn1)NC(=O)CNC(=O)[C@@H](NC(=O)[C@H](C)NC(=O)[C@H](Cc1c[nH]c2ccccc12)NC(=O)[C@H](CCC(N)=O)NC(=O)CCCCCCCCCCNC(=O)CN1CCN(CC(=O)O)CCN(CC(=O)O)CCN(CC(=O)O)CC1)C(C)C)C(N)=O [177Lu-DOTA-11-Aun-BBN[7-14]NH2] [metal not drawn]
0.19

Input CSCC[C@H](NC(=O)[C@H](CC(C)C)NC(=O)[C@H](Cc1c[nH]cn1)NC(=O)CNC(=O)[C@@H](NC(=O)[C@H](C)NC(=O)[C@H](Cc1c[nH]c2ccccc12)NC(=O)[C@H](CCC(N)=O)NC(=O)CCCCNC(=O)CN1CCN(CC(=O)O)CCN(CC(=O)O)CCN(CC(=O)O)CC1)C(C)C)C(N)=O [177Lu-DOTA-5-Ava-BBN[7-14]NH2] [metal not drawn]
0.04

Continue with CSCC[C@H](NC(=O)[C@H](CC(C)C)NC(=O)[C@H](Cc1cnc[nH]1)NC(=O)CNC(=O)[C@@H](NC(=O)[C@H](C)NC(=O)[C@H](Cc1c[nH]c2ccccc12)NC(=O)[C@H](CCC(N)=O)NC(=O)CN1CCN(CC(=O)O)CCN(CC(=O)O)CCN(CC(=O)O)CC1)C(C)C)C(N)=O [177Lu-DOTA-0-BBN[7-14]NH2] [metal not drawn]
0.01

Can you handle CSCC[C@H](NC(=O)[C@H](CC(C)C)NC(=O)[C@H](Cc1cnc[nH]1)NC(=O)CNC(=O)[C@@H](NC(=O)[C@H](C)NC(=O)[C@H](Cc1c[nH]c2ccccc12)NC(=O)[C@H](CCC(N)=O)NC(=O)CCNC(=O)CN1CCN(CC(=O)O)CCN(CC(=O)O)CCN(CC(=O)O)CC1)C(C)C)C(N)=O [111In-DOTA-β-Ala-BBN[7-14]NH2] [metal not drawn] next?
0.01

Same question for CSCC[C@H](NC(=O)[C@H](CC(C)C)NC(=O)[C@H](Cc1c[nH]cn1)NC(=O)CNC(=O)[C@@H](NC(=O)[C@H](C)NC(=O)[C@H](Cc1c[nH]c2ccccc12)NC(=O)[C@H](CCC(N)=O)NC(=O)CCCCCCCCCCNC(=O)CN1CCN(CC(=O)O)CCN(CC(=O)O)CCN(CC(=O)O)CC1)C(C)C)C(N)=O [111In-DOTA-11-Aun-BBN[7-14]NH2] [metal not drawn] please.
0.02
